experiment: Pharmacokinetics after intravenous bolus injection; format: in vivo, rat; details: 30 mg/kg single i.v. bolus; rat
metric: first order rate constant (min⁻¹)
Write the number in min⁻¹ without appending the unit.

Specify first order rate constant for NCC(=O)N1CCC[C@H]1C(=O)N[C@@H](CCC(=O)O)C(=O)O and stop.
0.15
